Each recorded value in this set is attributed to patent US10047105B2.

tested on: S. pneumoniae ATCC 51916; assay: MIC, S. pneumoniae; type: cell-based; conditions: S. pneumoniae
Measured quantity: MIC Spn52 (µg/mL)
Answer format: numeric, µg/mL implied, no suffix.

Sample answers from the record:
> print(dat)
                                   compound  measured.quantity  measured.value
1  CCc1[nH]c2nc(Sc3cnc4nccnc4c3)nc(N3CC(C4(N)CC4)C3)c2c1Cl          MIC Spn52               4
2  CCc1[nH]c2nc(Sc3cnc4cccnc4c3)nc(N3CC4CNC4C3)c2c1Cl (stereo not drawn)          MIC Spn52               1
3  CCOc1nc(Nc2cncnc2)nc2[nH]c(CC)c(Br)c12.O=C(O)C(F)(F)F          MIC Spn52               8

Query MIC Spn52 on S. pneumoniae ATCC 51916 for CCc1[nH]c2nc(Sc3cnc4nccnc4c3)nc(N3CC[C@@H](N)C3)c2c1Cl 2

Fill in the recorded MIC Spn52 for this compound, with S. pneumoniae ATCC 51916 as test system: CCc1[nH]c2nc(Sc3cnc4nccnc4c3)nc(N3CC(CNC(=O)CN4C(=O)CSC4=O)C3)c2c1Cl 1

Query MIC Spn52 on S. pneumoniae ATCC 51916 for CCc1[nH]c2nc(Sc3cccnc3)nc(NCCCn3ccnc3)c2c1Cl.O=C(O)C(F)(F)F 16

---

Overview of reported MIC Spn52 across a group of compounds:
system: S. pneumoniae ATCC 51916; test: MIC, S. pneumoniae; type: cell-based; conditions: S. pneumoniae

Suppose we examine the compound CCc1[nH]c2nc(Nc3cnc4c(c3)nnn4C(C)C)nc(N(C)CCO)c2c1Cl.O=C(O)C(F)(F)F ; what MIC Spn52 value has been reported? > 32 µg/mL

Please look up its MIC Spn52: CCc1[nH]c2nc(Sc3cnc4c(N)nc(N)nc4c3)nc(OCc3cccnc3)c2c1Cl.O=C(O)C(F)(F)F.O=C(O)C(F)(F)F > 64 µg/mL

Item under review: CCc1[nH]c2nc(Sc3cnc4nccnc4c3)nc(NCCN3CCCC3)c2c1Cl.O=C(O)C(F)(F)F . Reported MIC Spn52? > 64 µg/mL
